Measured inhibition values are reported for all entries that follow.
Target: Sentrin-specific protease 7 (Homo sapiens)
Test: SENP7 protease inhibitors, primary screen, biochemical, luminescence, uHTS (AID 434973);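 also: plate controls were DMSO with enzyme for no effect and no enzyme buffer wells for full effect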
Settings: recombinant SENP7, Z-RLRGG-aminoluciferin luminescence, 40 min; at 5 µM; active compounds read high
Out of some 330,000 compounds screened, about 4,900 (1.5%) were called active. This is one part of a sample in which actives are shown more often than they occur.
Return type: number; implicit unit %.

Cc1ncc(CO)c(/C=N/NC(=O)c2cccc(S(=O)(=O)N3CCCC3)c2)c1O: -7.56
O=C(Nc1ccc(N2CCOCC2)cc1)c1ccc2c(c1)OCO2: 16.9
N#Cc1ccccc1NC(=O)c1ccc2c(c1)OCO2: 2.46

Ask: Bench note: what inhibition did O=C1C=C(c2ccnc3cc(Cl)ccc23)C[C@@H](c2ccc3c(c2)OCO3)C1 show?
Reply: 2.03

====

Target: Sentrin-specific protease 7 (Homo sapiens)
Assay: SENP7 protease inhibitors, primary screen, biochemical, luminescence, uHTS (AID 434973);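 also: plate controls were DMSO with enzyme for no effect and no enzyme buffer wells for full effect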
Settings: recombinant SENP7, Z-RLRGG-aminoluciferin luminescence, 40 min; at 5 µM
In all, about 330,000 compounds went through this assay and about 4,900 (1.5%) were called active.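 Rule for the calls: active = inhibition above about 50% at the single test dose (limit read from the data); inactive = the rest.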 Shown is part of a subset that was picked to be rich in actives.
Result category, one only: t (active), f (inactive)

For orientation, consider the following solved cases.
Cc1cc(C)nc(-n2ncc3c2CC(c2ccc(C(C)C)cc2)CC3=O)n1 (centres undefined): f
Clc1ccc(COn2c(-c3ccc(Cl)cc3Cl)nc3ncccc32)cc1: f
CCOc1cc(NC(=O)CCl)c(OCC)cc1NC(C)=O: f
CC(C)c1ccc(NC(=O)CCN2C(=O)c3ccc([N+](=O)[O-])cc3C2=O)cc1: f
Cc1ccccc1NC(=O)C(C)OC(=O)CCC(=O)N(CC(C)C)c1c(N)n(CC(C)C)c(=O)[nH]c1=O (centres undefined): f

Ask: Kindly provide the recorded test outcome for the following compound: O=S(=O)(Nc1ccc2nc(N3CCOCC3)sc2c1)c1ccccc1
Reply: f

Ask: Test call, this compound: O=C(Nc1cccc2ccccc12)c1onc2c1CCCC2
Reply: t

Ask: I would be grateful if you could indicate the recorded call for Cc1nc2nc(CSc3nc4ccccc4s3)cc(=O)n2[nH]1 .
Reply: f

Ask: Outcome? O=C(c1ccc2nc(N3CCOCC3)sc2c1)N1CCN(c2ccc(Cl)cc2)CC1
Reply: f

Ask: Outcome? CCN1C(=O)c2cccc3c(N)ccc1c23
Reply: t

Ask: Returns: the outcome recorded for CC(C)Oc1ccc(Oc2ccc(C(F)(F)F)cn2)cc1 in this assay.
Reply: f

Ask: Write down the call the test reported for this compound. Item: Cc1ccccc1Nc1scc(-c2ccc(Br)cc2)[n+]1-c1ccccc1C
Reply: f

Ask: Query: recorded result category for CCOCCCNC(=O)C1(O)c2cc(Br)ccc2NC(=O)N1c1ccc(C)c(C)c1 (centres undefined) in this test
Reply: f

Ask: What did this assay record as the result for O=C1/C(=C/c2coc3ccc(O)cc3c2=O)SC(=S)N1c1ccccc1 ?
Reply: f

====

Molecular target: Sentrin-specific protease 7 (Homo sapiens) (UniProt Q9BQF6)
Test: SENP7 protease inhibitors, primary screen, biochemical, luminescence, uHTS (AID 434973);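 also: plate controls were DMSO with enzyme for no effect and no enzyme buffer wells for full effect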
Conditions: recombinant SENP7, Z-RLRGG-aminoluciferin luminescence, 40 min; at 5 µM
Out of some 330,000 compounds screened, about 4,900 (1.5%) were called active.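 The calls were made as follows: active = inhibition above about 50% at the single test dose (limit read from the data); inactive = the rest.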 The full list was thinned out, with actives kept by preference.
Would you mind answering with one of these outcomes? t = active, f = inactive

Field: example entries. Status: answers known.
Cc1ccc2nc(N3CCN(C(=O)c4ccco4)CC3)sc2c1: f
Cc1ccc(-n2c(C)cc(C(=O)CSc3nnc4ccccn34)c2C)cc1: f
Brc1ccc(-c2nnc(-c3ccccc3)o2)o1: t
Cc1cc(C)cc(NC(=O)N2CCCCCCC2)c1: f
OC(c1nnc(-c2ccccc2)o1)c1cccs1 (stereo unspecified): f

Ask: How was COc1cccc(NC(=O)CN(C)C(=O)c2ccccc2CCc2ccccc2)c1 classified in this test?
Reply: f
